Provide the recorded IC50 for the entries that follow.
Test system: Bacillus subtilis (ATCC #33234)
Assay type: cell-based
Conditions Used: 37° C., growth monitored up to 7.5 hours; read-out: IC50 (μM) Bacillus Subtilis Cell Growth
Response body: numeric value in µM, unit text excluded.

Quick one: IC50 for COc1ccc(B(Oc2ccc(Cl)c3cccnc23)c2ccc(OC)cc2)cc1 [(13vii)] ? 36

Quick one: IC50 for COc1ccc(B(Oc2cccc3cccnc23)c2ccc(OC)cc2)cc1 [(11vii)] ? 20

---

System: Bacillus subtilis (ATCC #33234)
Type: cell-based
Conditions Used: 37° C., growth monitored up to 7.5 hours; read-out: IC50 (μM) Bacillus Subtilis Cell Growth
Provide the recorded IC50 for the entries that follow.
Response body: numeric value in µM, unit text excluded.

Quick one: IC50 for c1csc(B(Oc2cccc3cccnc23)c2cccs2)c1 [(11viii)] ? 28

Quick one: IC50 for Cc1ccc2cccc(OB(c3ccc(Cl)cc3)c3ccc(Cl)cc3)c2n1 [(12iii)] ? 24

Quick one: IC50 for Fc1ccc(B(Oc2ccc(Cl)c3cccnc23)c2ccc(F)cc2)cc1 [(13ii)] ? 27

Quick one: IC50 for c1cnc2c(OB(c3ccc4c(c3)OCO4)c3ccc4c(c3)OCO4)cccc2c1 [(11vi)] ? 28

---

Provide the recorded IC50 for the entries that follow.
Tested on: Bacillus subtilis (ATCC #33234)
Type: cell-based
Conditions Used: 37° C., growth monitored up to 7.5 hours; read-out: IC50 (μM) Bacillus Subtilis Cell Growth

Quick one: IC50 for Clc1ccc(B(Oc2ccc(Cl)c3cccnc23)c2ccc(Cl)cc2)cc1 ? < 10 µM

Quick one: IC50 for Clc1cccc(B(Oc2cccc3cccnc23)c2cccc(Cl)c2)c1 [(11iv)] ? < 10 µM

Quick one: IC50 for COc1ccc(B(Oc2cccc3ccc(C)nc23)c2ccc(OC)cc2)cc1 ? > 100 µM

---

Provide the recorded IC50 for the entries that follow.
Tested on: Bacillus subtilis (ATCC #33234)
Assay type: cell-based
Conditions Used: 37° C., growth monitored up to 7.5 hours; read-out: IC50 (μM) Bacillus Subtilis Cell Growth

Quick one: IC50 for Clc1ccc(OB(c2ccc3c(c2)OCO3)c2ccc3c(c2)OCO3)c2ncccc12 [(13vi)] ? > 100 µM

Quick one: IC50 for Cc1ccc2cccc(OB(c3ccc(F)cc3)c3ccc(F)cc3)c2n1 [(12ii)] ? > 100 µM

Quick one: IC50 for Fc1cc(Cl)ccc1B(Oc1cccc2cccnc12)c1ccc(Cl)cc1F [(11v)] ? < 10 µM

Quick one: IC50 for O=[N+]([O-])c1ccc(OB(c2ccc3c(c2)OCO3)c2ccc3c(c2)OCO3)c2ncccc12 [(14vi)] ? > 100 µM
